A collection of compounds and their measured Ki
Target: Sigma non-opioid intracellular receptor 1 (Cavia porcellus, UniProt Q60492)
Sequence (Q60492 whole entry): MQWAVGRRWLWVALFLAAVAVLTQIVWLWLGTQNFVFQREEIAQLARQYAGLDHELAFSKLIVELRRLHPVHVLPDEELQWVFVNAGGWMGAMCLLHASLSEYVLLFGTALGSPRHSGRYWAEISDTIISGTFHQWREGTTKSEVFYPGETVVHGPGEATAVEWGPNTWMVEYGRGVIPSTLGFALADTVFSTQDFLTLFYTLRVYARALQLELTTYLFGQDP
Assay: Displacement of [3H](+)-pentazocine from sigma 1 receptor in guinea pig brain membrane
Number in µM, nothing else.

compoundString | systemTested | Ki / µM
OCC[C@H]1Cc2ccccc2C2(CCN(CC3CCCCC3)CC2)O1 | Sigma non-opioid intracellular receptor 1 (Cavia porcellus, UniProt Q60492) | 0.009
OCC[C@H]1Cc2ccccc2C2(CCN(Cc3ccccc3)CC2)O1 | Sigma non-opioid intracellular receptor 1 (Cavia porcellus, UniProt Q60492) | 0.048
OCC[C@H]1Cc2ccccc2C2(CCN(CCCc3ccccc3)CC2)O1 | Sigma non-opioid intracellular receptor 1 (Cavia porcellus, UniProt Q60492) | 0.068

Then there is this compound:
// field: Ki; key: OCC[C@@H]1Cc2ccccc2C2(CCN(Cc3ccccc3)CC2)O1 ; value = 0.01
